// data source = patent US20150218281A1

- Tested System: T1, recombinant human OX40L (extracellular domain, R&D Systems) (human, UniProt P23510 51-183)
- T1 construct: also called hOX40L; rec. hOX40L
- T1 sequence: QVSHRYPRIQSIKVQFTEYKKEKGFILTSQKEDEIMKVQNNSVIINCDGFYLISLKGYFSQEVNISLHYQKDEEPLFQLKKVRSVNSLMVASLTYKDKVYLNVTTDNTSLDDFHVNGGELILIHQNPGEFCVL
- Experimental Protocol: SPR, second injection after competitor OX40L15B07
Item-by-item account of Binding Level sample 2 (RU)
// note: answer is a bare numeric in RU

Binder	Measurement Units	Reported Value
OX40L01B11 (VHH, monovalent Nanobody from E. coli; not shown: C-terminal c-myc and His6 tag) VHH: EVQLVESGGGLVQAGGSLRLSCVASGRSFSTYIMGWFRQAPGKEREFVATISRSGITTRSADSVKGRFTISRDNAKNTVYLQMNSLKPEDTAVYYCAAGPYVEQTLGLYQTLGPWDYWGQGTQVTVSS	RU	259

Let me know recorded Binding Level sample 2 (RU) for OX40L15B07 (VHH, monovalent Nanobody from E. coli; not shown: C-terminal c-myc and His6 tag) VHH: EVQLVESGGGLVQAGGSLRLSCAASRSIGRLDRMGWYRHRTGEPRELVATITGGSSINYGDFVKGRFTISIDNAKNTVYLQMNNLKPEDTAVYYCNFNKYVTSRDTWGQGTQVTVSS , thanks.
198

Find the measured Binding Level sample 2 (RU) of OX40L19D08 (VHH, monovalent Nanobody from E. coli; not shown: C-terminal c-myc and His6 tag) VHH: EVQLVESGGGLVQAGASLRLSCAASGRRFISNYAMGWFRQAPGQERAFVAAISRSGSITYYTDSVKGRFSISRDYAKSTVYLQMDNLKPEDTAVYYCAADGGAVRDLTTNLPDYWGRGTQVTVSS and report it.
239

Output Binding Level sample 2 (RU) of OX40L19A07 (VHH, monovalent Nanobody from E. coli; not shown: C-terminal c-myc and His6 tag) VHH: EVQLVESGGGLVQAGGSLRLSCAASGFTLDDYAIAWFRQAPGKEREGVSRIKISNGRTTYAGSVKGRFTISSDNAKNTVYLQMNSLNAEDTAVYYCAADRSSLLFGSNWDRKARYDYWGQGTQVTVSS
207

Supply Binding Level sample 2 (RU) value. Item: OX40L01E10 (VHH, monovalent Nanobody from E. coli; not shown: C-terminal c-myc and His6 tag) VHH: EVQLVESGGGLVQAGDSLRLSCAASGLTFSSFAMGWFRQAPGKEREFVAAISRSGYGTSEADSVRDRFIISRDNAKNTVTLHLSRLKPEDTAVYYCAAEHTLGRPSRSQINYLYWGQGTQVTVSS
190

Answer with the recorded Binding Level sample 2 (RU) of OX40L18E09 (VHH, monovalent Nanobody from E. coli; not shown: C-terminal c-myc and His6 tag) VHH: EVQLVESGGGLVQAGGSLRLSCAASRNILSLNTMGWYRHAPGKPRELVARISSNSKTDYADSVKGRFTISRDNAKNTVLLQMNSLKPEDTGVYYCNLNVWRTSSDYWGQGTQVTVSS only.
207

Name the recorded Binding Level sample 2 (RU) of the item OX40L01E07 (VHH, monovalent Nanobody from E. coli; not shown: C-terminal c-myc and His6 tag) VHH: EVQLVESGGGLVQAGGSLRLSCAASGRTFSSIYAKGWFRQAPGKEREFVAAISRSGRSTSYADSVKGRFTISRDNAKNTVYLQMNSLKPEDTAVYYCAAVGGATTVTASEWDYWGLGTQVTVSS in your answer.
252
